# key: entry, value: IC50
experiment: Inhibition of influenza A virus (A/Perth/16/2009(H3N2)) neuraminidase using MUNANA substrate pre-incubated for 30 mins before substrate addition by fluorometric assay

C[C@@H]1O[C@@H](Oc2c(-c3ccc(O)c(O)c3)oc3cc(O)cc(O)c3c2=O)[C@H](O)[C@H](O)[C@H]1O [CHEBI:17558]
121 µM
O=c1cc(O)cc2oc(-c3ccc(O)c(O)c3)c(O[C@@H]3O[C@H](CO)[C@@H](O)[C@H](O)[C@H]3O)c(O)c1-2 [Quercetin 3-O-beta-D-glucoside]
477 µM
O=c1cc(-c2ccc(O)c(O)c2)oc2cc(O[C@@H]3O[C@H](CO)[C@@H](O)[C@H](O)[C@H]3O)cc(O)c12
51.2 µM
O=c1c(O)c(-c2ccc(O)cc2)oc2cc(O)cc(O)c12
42.2 µM

For the next question, use this compound.
// IC50 lookup, compound = `O=c1cc(O)cc2oc(-c3ccc(O)c(O)c3)c(O[C@@H]3O[C@H](CO)[C@H](O)[C@H](O)[C@H]3O)c(O)c1-2` , result: 85.5 µM
